# study-system: human 5-HT1A receptor (Homo sapiens (Human), UniProt P08908)
# Sequence (P08908 whole entry): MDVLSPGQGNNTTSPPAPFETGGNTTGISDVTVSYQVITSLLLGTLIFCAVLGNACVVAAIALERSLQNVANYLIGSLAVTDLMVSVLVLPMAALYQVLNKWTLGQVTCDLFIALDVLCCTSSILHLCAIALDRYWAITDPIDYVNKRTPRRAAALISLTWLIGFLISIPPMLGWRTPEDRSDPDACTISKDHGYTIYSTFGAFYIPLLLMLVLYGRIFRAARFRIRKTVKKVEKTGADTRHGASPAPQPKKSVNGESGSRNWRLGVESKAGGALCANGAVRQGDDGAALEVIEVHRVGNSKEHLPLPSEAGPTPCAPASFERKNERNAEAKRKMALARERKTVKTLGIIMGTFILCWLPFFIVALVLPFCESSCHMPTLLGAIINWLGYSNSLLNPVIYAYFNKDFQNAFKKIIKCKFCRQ
Kindly apply the following: Yes if Ki is less than 60 nM, No in every other case.

| query-smiles | class-label |
| --- | --- |
| Cc1cncc2c1CCN(CCN1CCN(c3noc4ccccc34)CC1)C2=O | No |
| Cn1ncc2c1CCN(CCN1CCN(c3noc4ccccc34)CC1)C2=O | No |

Take the molecule "O=C1c2cnn(C3CC3)c2CCN1CCN1CCC(c2noc3ccccc23)CC1" and say whether its Ki is less than 60 nM.
No

Take the molecule "Cn1ncc2c1CCN(CCN1CCN(c3nsc4ccccc34)CC1)C2=O" and say whether its Ki is less than 60 nM.
Yes
